Target: NLRP3 (Homo sapiens)
Sequence (Q96P20 whole entry): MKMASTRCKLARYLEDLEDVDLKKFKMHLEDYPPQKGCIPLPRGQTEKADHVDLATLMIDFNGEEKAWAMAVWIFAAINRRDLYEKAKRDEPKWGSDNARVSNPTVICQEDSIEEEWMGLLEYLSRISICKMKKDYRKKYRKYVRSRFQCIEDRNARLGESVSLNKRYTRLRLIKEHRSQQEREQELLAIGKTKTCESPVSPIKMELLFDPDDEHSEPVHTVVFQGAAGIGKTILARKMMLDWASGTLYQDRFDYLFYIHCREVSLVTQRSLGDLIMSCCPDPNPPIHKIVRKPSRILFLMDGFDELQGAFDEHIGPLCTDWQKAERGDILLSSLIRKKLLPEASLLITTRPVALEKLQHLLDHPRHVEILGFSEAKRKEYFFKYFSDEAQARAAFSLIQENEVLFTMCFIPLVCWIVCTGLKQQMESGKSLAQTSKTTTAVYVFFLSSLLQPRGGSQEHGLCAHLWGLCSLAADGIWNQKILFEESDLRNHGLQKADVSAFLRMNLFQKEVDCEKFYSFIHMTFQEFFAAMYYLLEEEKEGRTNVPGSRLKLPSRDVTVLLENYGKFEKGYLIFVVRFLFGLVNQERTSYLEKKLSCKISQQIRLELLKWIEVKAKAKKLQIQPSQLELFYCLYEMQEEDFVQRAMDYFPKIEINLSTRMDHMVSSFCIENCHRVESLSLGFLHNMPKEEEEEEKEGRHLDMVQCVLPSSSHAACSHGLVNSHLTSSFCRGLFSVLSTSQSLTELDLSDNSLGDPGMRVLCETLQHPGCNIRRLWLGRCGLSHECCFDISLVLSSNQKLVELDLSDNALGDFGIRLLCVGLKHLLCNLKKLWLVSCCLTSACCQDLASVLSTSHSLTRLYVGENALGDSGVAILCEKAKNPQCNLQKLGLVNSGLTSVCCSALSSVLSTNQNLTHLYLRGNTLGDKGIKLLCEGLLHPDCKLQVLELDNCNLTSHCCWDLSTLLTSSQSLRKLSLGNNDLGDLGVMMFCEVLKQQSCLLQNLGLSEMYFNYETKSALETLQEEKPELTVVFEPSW
Experiment: THP-1 cell-based NLRP3 activation assay
Conditions: PMA-differentiated THP-1 cells, LPS 100 ng/mL then 10 μM nigericin
Method: THP-1 cells are cultured in complete media (CM) until they reach logarithmic growth and achieve a viability >90%. CM is composed of RPMI-1640 (+Glutamax)/10% fetal bovine serum/55 μM β-mercaptoethanol/pen/strep. Cells are spun down and resuspended to 1,000,000 cells/mL in CM containing either 20 nM or 500 nM PMA. […] The media is again removed and replaced with Opti-Mem medium containing pre-determined dilutions of test compounds in replicate wells. […]
A collection of compounds and their measured IC50

compound="CCOc1cc(C(=O)N(CCN2CCC(F)C2)Cc2cncc3cn[nH]c23)ccc1-c1cccc(F)c1 (centres unmarked) [Compound 109]" quantity_kind=IC50 test_value="< 100 nM"
compound="CCOc1cc(C(=O)N(C)[C@H](CCN(C)C)c2cncc3cn[nH]c23)ccc1-c1cccc(C)c1 [Compound 091]" quantity_kind=IC50 test_value="< 100 nM"
compound="CCOc1cc(C(=O)N(Cc2cncc3cn[nH]c23)C2CC(NC)C2)ccc1-c1cccc(Cl)c1 (centres unmarked) [Compound 236]" quantity_kind=IC50 test_value="< 100 nM"

Exercise: Given CCOc1cc(C(=O)N(C)[C@H](CCN)c2cncc3cn[nH]c23)ccc1C [Compound 185] , state its recorded IC50.
Solution: 1000 to 15000 nM

Exercise: Moving on to CCOc1cc(C(=O)N(CCN2CCCC2)Cc2cncc3cn[nH]c23)ccc1-c1cccc(F)c1 [Compound 119]
Solution: < 100 nM

Exercise: Moving on to CN(C(=O)c1ccc(-c2cccc(Cl)c2)c(OC2CC2)c1)[C@@H](CCO)c1cncc2cn[nH]c12 [Compound 012]
Solution: 100 to 500 nM

Exercise: Moving on to CCOc1cc(C(=O)N(C)[C@H](CN2CCC2)c2cncc3cn[nH]c23)ccc1-c1cccc(F)c1 [Compound 123]
Solution: 500 to 1000 nM

Exercise: Moving on to CCOc1cc(C(=O)N(Cc2cncc3cn[nH]c23)[C@H]2CC[C@@H]2N(C)C)ccc1-c1cccc(Cl)c1 [Compound 288]
Solution: 100 to 500 nM

Exercise: Moving on to CCOc1cc(C(=O)N(C)[C@H](CCN2CC(F)C2)c2cncc3cn[nH]c23)ccc1-c1cccc(F)c1 [Compound 070]
Solution: < 100 nM

Exercise: Moving on to CCOc1cc(C(=O)N(Cc2cncc3cn[nH]c23)C2CC(NC)C2)ccc1-c1cccc(F)c1 (centres unmarked) [Compound 235]
Solution: 100 to 500 nM

Exercise: Moving on to CCc1ncc([C@@H](CO)N(C)C(=O)c2ccc(-c3cc(F)cc(F)c3)c(OC3CC3)c2)c2[nH]ncc12 [Compound 035]
Solution: < 100 nM

Exercise: Moving on to CCOc1cc(C(=O)N(CCN2CCC(F)CC2)Cc2cncc3cn[nH]c23)ccc1-c1cccc(F)c1 [Compound 110]
Solution: < 100 nM

Exercise: Moving on to CCOc1cc(C(=O)N(Cc2cncc3cn[nH]c23)[C@H]2C[C@@H](N(C)C)C2)ccc1-c1cccc(C#N)c1 [Compound 290]
Solution: < 100 nM

Exercise: Moving on to CCOc1cc(C(=O)N(C)[C@H](CC[N+]([O-])(CC)CC)c2cccc3cn[nH]c23)ccc1-c1cccc(Cl)c1 [Compound 207]
Solution: < 100 nM

Exercise: Moving on to CCOc1cc(C(=O)N(C)[C@H](CCN(C)C)c2cncc3cn[nH]c23)ccc1C1CC1 [Compound 146]
Solution: 100 to 500 nM

Exercise: Moving on to CCOc1cc(C(=O)N(C)[C@H](CCN(C)CC(F)F)c2cncc3cn[nH]c23)ccc1-c1cccc(F)c1 [Compound 094]
Solution: < 100 nM

Exercise: Moving on to CN(C(=O)c1ccc(-c2cccc(Cl)c2)c(OC2CC2)c1)[C@H](CO)c1cncc2cn[nH]c12 [Compound 006]
Solution: < 100 nM

Exercise: Moving on to CCOc1cc(C(=O)N(C)[C@@H](c2cncc3cn[nH]c23)C2CN(C)C2)ccc1-c1cccc(F)c1 [Compound 079]
Solution: < 100 nM

Exercise: Moving on to C=CC(=O)NCC[C@H](c1cncc2cn[nH]c12)N(C)C(=O)c1ccc(-c2cccc(F)c2)c(OCC)c1 [Compound 080]
Solution: < 100 nM

Exercise: Moving on to CCOc1cc(C(=O)N(C)[C@H](CN(C)C)c2cncc3cn[nH]c23)ccc1-c1cccc(Cl)c1 [Compound 125]
Solution: < 100 nM

Exercise: Moving on to CCOc1cc(C(=O)N(C)C(CN(C)CC)c2cccc3cn[nH]c23)ccc1-c1cccc(F)c1 (centres unmarked) [Compound 258]
Solution: 100 to 500 nM

Exercise: Moving on to CCOc1cc(C(=O)N(Cc2cccc3cn[nH]c23)[C@H]2C[C@@H](NC)C2)ccc1-c1cccc(C#N)c1 [Compound 265]
Solution: < 100 nM

Exercise: Moving on to CCOc1cc(C(=O)N(C)[C@H](CCN(C)C)c2cccc3cn[nH]c23)ccc1-c1cccc(C)c1 [Compound 195]
Solution: < 100 nM

Exercise: Moving on to CCOc1cc(C(=O)N(Cc2cncc3cn[nH]c23)[C@H]2CC[C@H]2N)ccc1-c1cccc(Cl)c1 [Compound 295]
Solution: 100 to 500 nM

Exercise: Moving on to CCOc1cc(C(=O)N(C)[C@H](CCNC)c2cncc3cn[nH]c23)ccc1-c1cccc(C#N)c1 [Compound 232]
Solution: < 100 nM
